The reported measurements were obtained from ChEMBL document CHEMBL2429846.

- Organism: Homo sapiens
- TEST METHOD NOTES: Selectivity index, ratio of IC50 for recombinant human MAO-A to IC50 for recombinant human MAO-B
REPORTED PROPERTY: Ratio IC50

# example entries with known answers
1) O=C1CCc2cc(OCCCc3ccccc3)ccc2N1
69
2) O=C1CCc2ccc(OCc3ccccc3)cc2N1
2380
3) O=C1CCc2ccc(OCCc3ccccc3)cc2N1
281
4) O=C1CCc2ccc(OCCCc3ccccc3)cc2N1
173
5) O=C1CCc2cc(OCCc3ccccc3)ccc2N1
10
6) O=C1CCc2cc(OCc3cccc(Cl)c3)ccc2N1
82
7) O=C1CCc2cc(OCc3ccccc3)ccc2N1
6
8) O=C1CCc2cc(OCc3cccc(Br)c3)ccc2N1
144

# ---- query compound ----
Form field: reported Ratio IC50 of "O=C1CCc2cc(O)ccc2N1"
0.8

----------
- MEASURED TARGET: Amine oxidase [flavin-containing] B (Homo sapiens, UniProt P27338)
- Sequence (P27338 whole entry): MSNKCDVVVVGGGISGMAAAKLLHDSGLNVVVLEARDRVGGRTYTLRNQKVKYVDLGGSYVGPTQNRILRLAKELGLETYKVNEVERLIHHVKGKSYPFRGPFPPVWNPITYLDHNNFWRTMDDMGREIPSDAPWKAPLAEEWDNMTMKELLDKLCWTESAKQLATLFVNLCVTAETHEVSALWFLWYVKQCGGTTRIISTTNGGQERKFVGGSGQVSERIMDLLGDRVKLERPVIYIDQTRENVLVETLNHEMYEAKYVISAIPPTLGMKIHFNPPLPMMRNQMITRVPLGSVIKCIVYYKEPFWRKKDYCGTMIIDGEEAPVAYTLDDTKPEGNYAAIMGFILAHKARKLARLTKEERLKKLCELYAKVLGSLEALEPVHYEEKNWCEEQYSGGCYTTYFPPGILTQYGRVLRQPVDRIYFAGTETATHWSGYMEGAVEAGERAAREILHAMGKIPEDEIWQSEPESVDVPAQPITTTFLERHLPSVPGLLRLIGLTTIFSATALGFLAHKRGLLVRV
- TEST METHOD NOTES: Inhibition of recombinant human MAO-B assessed as inhibition of kynuramine conversion to fluorescent metabolite 4-hydroxyquinoline after 20 mins by fluorescence spectrophotometry
REPORTED PROPERTY: pIC50
Recall that pIC50 is obtained by taking minus log10 of the concentration measured in molar.

# example entries with known answers
1. O=C1CCc2cc(OCCCc3ccccc3)ccc2N1
6.55
2. O=C1CCc2cc(OCc3cccc(Cl)c3)ccc2N1
6.21
3. O=C1CCc2ccc(OCCc3ccccc3)cc2N1
6.72

Form field: reported pIC50 of "O=C1CCc2cc(OCc3ccccc3)ccc2N1"
5.40

Form field: reported pIC50 of "O=C1CCc2cc(OCc3cccc(Br)c3)ccc2N1"
7.07

Form field: reported pIC50 of "O=C1CCc2cc(OCCc3ccccc3)ccc2N1"
5.63

Form field: reported pIC50 of "O=C1CCc2cc(O)ccc2N1"
3.70

Form field: reported pIC50 of "O=C1CCc2ccc(OCCCc3ccccc3)cc2N1"
6.89

Form field: reported pIC50 of "O=C1CCc2ccc(OCc3ccccc3)cc2N1"
7.42

----------
- MEASURED TARGET: Amine oxidase [flavin-containing] A (Homo sapiens, UniProt P21397)
- Sequence (P21397 whole entry): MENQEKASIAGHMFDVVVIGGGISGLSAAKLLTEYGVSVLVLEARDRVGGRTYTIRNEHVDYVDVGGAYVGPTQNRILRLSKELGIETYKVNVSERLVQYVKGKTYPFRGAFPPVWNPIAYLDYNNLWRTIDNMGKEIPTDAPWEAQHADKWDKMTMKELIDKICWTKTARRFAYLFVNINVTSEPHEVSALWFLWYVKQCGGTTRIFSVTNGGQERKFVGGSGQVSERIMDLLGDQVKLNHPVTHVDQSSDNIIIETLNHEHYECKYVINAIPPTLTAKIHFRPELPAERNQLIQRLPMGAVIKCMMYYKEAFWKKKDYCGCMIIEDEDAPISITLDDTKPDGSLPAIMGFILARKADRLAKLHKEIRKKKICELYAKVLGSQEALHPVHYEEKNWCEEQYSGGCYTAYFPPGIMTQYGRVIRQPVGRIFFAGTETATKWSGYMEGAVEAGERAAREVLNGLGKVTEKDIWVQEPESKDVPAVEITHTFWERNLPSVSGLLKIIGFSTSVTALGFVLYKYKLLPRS
- TEST METHOD NOTES: Inhibition of recombinant human MAO-A assessed as inhibition of kynuramine conversion to fluorescent metabolite 4-hydroxyquinoline after 20 mins by fluorescence spectrophotometry
Below, each entry is listed with its recorded pIC50.
Recall that pIC50 is obtained by taking minus log10 of the concentration measured in molar.

1. O=C1CCc2ccc(OCc3ccccc3)cc2N1
4.04
2. O=C1CCc2cc(OCCc3ccccc3)ccc2N1
4.65
3. O=C1CCc2ccc(OCc3cccc(Br)c3)cc2N1
5.10
4. O=C1CCc2ccc(O)cc2N1
3.74
5. O=C1CCc2cc(OCc3cccc(Br)c3)ccc2N1
4.91
6. O=C1CCc2cc(OCCCc3ccccc3)ccc2N1
4.71
7. O=C1CCc2cc(OCc3cccc(Cl)c3)ccc2N1
4.30
8. O=C1CCc2cc(O)ccc2N1
3.79

Form field: reported pIC50 of "O=C1CCc2ccc(OCCCc3ccccc3)cc2N1"
4.65

Form field: reported pIC50 of "O=C1CCc2cc(OCc3ccccc3)ccc2N1"
4.60

Form field: reported pIC50 of "O=C1CCc2ccc(OCCc3ccccc3)cc2N1"
4.27
